- Test system: Escherichia coli TOP10;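 also: peptides expressed intracellularly from a pBAD plasmid library in pooled LB shake-flask culture, induced with 0.3% L-arabinose, DNA abundance read by NGS, three biological replicates, DESeq2 with apeglm shrinkage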
- Measurement Description: shrunken log2 fold change of peptide-encoding DNA abundance (4.5 h post-induction vs induction); higher = less antimicrobial activity (less host growth inhibition)
- Condition Details: time post-induction: 4.5 h; library: site-saturation at positions 5, 18, 19, 20
Binary classification by shrunken log2 fold change, with -0.03 as an inclusive lower bound for satisfied; all other cases are not satisfied.

Completed entries (count: 6):
> print(dat)
             residue.codes  classification
1  RRIRFRPPRLPRPRPRPSDPPRP   not satisfied
2  RRIRCRPPRLPRPRPRPYLWPRP   not satisfied
3  RRIRCRPPRLPRPRPRPMRQPRP       satisfied
4  RRIRSRPPRLPRPRPRPHAQPRP       satisfied
5  RRIRYRPPRLPRPRPRPGATPRP       satisfied
6  RRIRKRPPRLPRPRPRPNTWPRP       satisfied

Could you please find out whether `RRIRVRPPRLPRPRPRPFSQPRP` has shrunken log2 fold change that meets -0.03 or exceeds it? not satisfied

Hi, just wondering whether `RRIRVRPPRLPRPRPRPNKNPRP` shows shrunken log2 fold change of -0.03 or higher. satisfied

Answer whether shrunken log2 fold change of `RRIRGRPPRLPRPRPRPAPMPRP` is greater than or equal to -0.03. satisfied

Does the reported shrunken log2 fold change for `RRIRERPPRLPRPRPRPEAIPRP` fall at or above the -0.03 mark? not satisfied

Hello, I need to know if `RRIRSRPPRLPRPRPRPQTPPRP` has measured shrunken log2 fold change not below -0.03. Thanks! satisfied

Identify whether the reported shrunken log2 fold change of the following sequence is -0.03 or greater: `RRIRNRPPRLPRPRPRPNIKPRP` not satisfied

Quick check, shrunken log2 fold change >= -0.03? `RRIRSRPPRLPRPRPRPTFHPRP` not satisfied

Hi team, for `RRIRPRPPRLPRPRPRPYTLPRP` , is the recorded shrunken log2 fold change at or above -0.03? not satisfied

Has `RRIRKRPPRLPRPRPRPLCHPRP` a recorded shrunken log2 fold change greater than or equal to -0.03? satisfied
